- Test system: Mycobacterium abscessus
- Protocol: MIC against Mycobacterium abscessus (strain not given)
- Assay type: cell-based
- Test parameters: Mycobacteroides abscessus, 72 h; Table 22; read-out: MICMab
Outcome measure: MIC (µM)
Report the figure in µM without appending any unit label.

{"Compound": "CO[C@H]1/C=C/O[C@@]2(C)Oc3c(C)c(O)c4c(c3C2=O)C2=NC3(CCN(CC(C)C)CC3)NC2=C(NC(=O)/C(C)=C/C=C/[C@H](C)[C@H](O)[C@@H](C)[C@@H](O)[C@@H](C)[C@H](OC(=O)Nc2ccn3nccc3c2)[C@@H]1C)C4=O [UMN123]", "Outcome measure": "MIC", "Val": 0.051}
{"Compound": "CO[C@H]1/C=C/O[C@@]2(C)Oc3c(C)c(O)c4c(c3C2=O)C2=NC3(CCN(CC(C)C)CC3)NC2=C(NC(=O)/C(C)=C\\C=C\\[C@H](C)[C@H](O)[C@@H](C)[C@@H](O)[C@@H](C)[C@H](OC(C)=O)[C@@H]1C)C4=O [rifabutin, reference compound]", "Outcome measure": "MIC", "Val": 1.15}
{"Compound": "CO[C@H]1/C=C/O[C@@]2(C)Oc3c(C)c(O)c4c(c3C2=O)C2=NC3(CCN(CC(C)C)CC3)NC2=C(NC(=O)/C(C)=C/C=C/[C@H](C)[C@H](O)[C@@H](C)[C@@H](O)[C@@H](C)[C@H](OC(=O)Nc2cncs2)[C@@H]1C)C4=O [UMN133]", "Outcome measure": "MIC", "Val": 0.046}

Could you now look at the following compound, please?
// returns reported MIC for input CO[C@H]1/C=C/O[C@@]2(C)Oc3c(C)c(O)c4c(c3C2=O)C2=NC3(CCN(CC(C)C)CC3)NC2=C(NC(=O)/C(C)=C/C=C/[C@H](C)[C@H](O)[C@@H](C)[C@@H](O)[C@@H](C)[C@H](OC(=O)Nc2cscn2)[C@@H]1C)C4=O [UMN132]
0.026

* * *

- Protocol: Plasma protein binding assay (rapid equilibrium dialysis)
- Assay type: in vitro ADME
- Test parameters: plasma
Outcome measure: plasma unbound fraction
Include the unit after the number when you answer.

Sample answers from the record:
{"Molecule": "CO[C@H]1/C=C/O[C@@]2(C)Oc3c(C)c(O)c4c(c3C2=O)C2=NC3(CCN(CC(C)C)CC3)NC2=C(NC(=O)/C(C)=C/C=C/[C@H](C)[C@H](O)[C@@H](C)[C@@H](O)[C@@H](C)[C@H](OC(=O)C2CCC2)[C@@H]1C)C4=O", "plasma unbound fraction": "0.29%"}
{"Molecule": "CO[C@H]1/C=C/O[C@@]2(C)Oc3c(C)c(O)c4c(c3C2=O)C2=NC3(CCN(CC(C)C)CC3)NC2=C(NC(=O)/C(C)=C/C=C/[C@H](C)[C@H](O)[C@@H](C)[C@@H](O)[C@@H](C)[C@H](OC(=O)c2ccncc2)[C@@H]1C)C4=O", "plasma unbound fraction": "2.00%"}
{"Molecule": "COc1cccc(C(=O)O[C@H]2[C@H](C)[C@H](O)[C@H](C)[C@@H](O)[C@@H](C)/C=C/C=C(\\C)C(=O)NC3=C4NC5(CCN(CC(C)C)CC5)N=C4c4c(c(O)c(C)c5c4C(=O)[C@@](C)(O/C=C/[C@H](OC)[C@H]2C)O5)C3=O)c1", "plasma unbound fraction": "0.02%"}

Consider now this further molecule.
May I ask what plasma unbound fraction has been recorded for CO[C@H]1/C=C/O[C@@]2(C)Oc3c(C)c(O)c4c(c3C2=O)C2=NC3(CCN(CC(C)C)CC3)NC2=C(NC(=O)/C(C)=C/C=C/[C@H](C)[C@H](O)[C@@H](C)[C@@H](O)[C@@H](C)[C@H](OC(=O)c2cccc(-c3ccccc3)c2)[C@@H]1C)C4=O ?
0%

* * *

- Protocol: Mouse pharmacokinetics studies
- Type: in vivo, CD-1 mice
- Test parameters: female, CD-1, mouse, in vivo, po, 10 mg/kg
Outcome measure: AUC (ng·h/mL)
Report as a plain number; the unit ng·h/mL is understood.

What value of measured AUC is listed for CO[C@H]1/C=C/O[C@@]2(C)Oc3c(C)c(O)c4c(c3C2=O)C2=NC3(CCN(CC(C)C)CC3)NC2=C(NC(=O)/C(C)=C\C=C\[C@H](C)[C@H](O)[C@@H](C)[C@@H](O)[C@@H](C)[C@H](OC(C)=O)[C@@H]1C)C4=O [rifabutin, reference compound] ?
11500

* * *

- Tested on: Mycobacterium abscessus
- Protocol: MIC against Mycobacterium abscessus (strain not given)
- Format: cell-based
- Test parameters: Mycobacteroides abscessus, 72 h; Table 22; read-out: MICMab
Quick list: MIC per entry.
The reply should contain only the number, in µM.

{"Molecule": "CO[C@H]1/C=C/O[C@@]2(C)Oc3c(C)c(O)c4c(O)c(c(/C=N/N5CCN(C)CC5)c(O)c4c3C2=O)NC(=O)/C(C)=C\\C=C\\[C@H](C)[C@H](O)[C@@H](C)[C@@H](O)[C@@H](C)[C@H](OC(C)=O)[C@@H]1C [rifampicin, reference compound]", "Val": 5.3}

I'd like to know its MIC. The molecule in question is CO[C@H]1/C=C/O[C@@]2(C)Oc3c(C)c(O)c4c(c3C2=O)C2=NC3(CCN(CC(C)C)CC3)NC2=C(NC(=O)/C(C)=C/C=C/[C@H](C)[C@H](O)[C@@H](C)[C@@H](O)[C@@H](C)[C@H](OC(=O)Nc2cccn3ccnc23)[C@@H]1C)C4=O
0.03

How about CO[C@H]1/C=C/O[C@@]2(C)Oc3c(C)c(O)c4c(c3C2=O)C2=NC3(CCN(CC(C)C)CC3)NC2=C(NC(=O)/C(C)=C/C=C/[C@H](C)[C@H](O)[C@@H](C)[C@@H](O)[C@@H](C)[C@H](OC(=O)c2cncnc2)[C@@H]1C)C4=O ?
0.018

# repeat for CO[C@H]1/C=C/O[C@@]2(C)Oc3c(C)c(O)c4c(c3C2=O)C2=NC3(CCN(CC(C)C)CC3)NC2=C(NC(=O)/C(C)=C/C=C/[C@H](C)[C@H](O)[C@@H](C)[C@@H](O)[C@@H](C)[C@H](OC(=O)Nc2c(C)nc3ccccn23)[C@@H]1C)C4=O
0.049

* * *

- Protocol: Mouse pharmacokinetics studies
- Format: in vivo, CD-1 mice
- Test parameters: Table 18
Outcome measure: ƒAUC/MIC
The response must contain the number and no unit.

{"Molecule": "CO[C@H]1/C=C/O[C@@]2(C)Oc3c(C)c(O)c4c(c3C2=O)C2=NC3(CCN(CC(C)C)CC3)NC2=C(NC(=O)/C(C)=C\\C=C\\[C@H](C)[C@H](O)[C@@H](C)[C@@H](O)[C@@H](C)[C@H](OC(C)=O)[C@@H]1C)C4=O [rifabutin, reference compound]", "ƒAUC/MIC": 0.22}

Value lookup for ƒAUC/MIC; key = CO[C@H]1/C=C/O[C@@]2(C)Oc3c(C)c(O)c4c(c3C2=O)C2=NC3(CCN(CC(C)C)CC3)NC2=C(NC(=O)/C(C)=C/C=C/[C@H](C)[C@H](O)[C@@H](C)[C@@H](O)[C@@H](C)[C@H](OC(=O)Nc2nncs2)[C@@H]1C)C4=O
26.5

Then this molecule: CO[C@H]1/C=C/O[C@@]2(C)Oc3c(C)c(O)c4c(c3C2=O)C2=NC3(CCN(CC(C)C)CC3)NC2=C(NC(=O)/C(C)=C/C=C/[C@H](C)[C@H](O)[C@@H](C)[C@@H](O)[C@@H](C)[C@H](OC(=O)NC2CCN(Cc3ccccc3)CC2)[C@@H]1C)C4=O
0.8

# repeat for CO[C@H]1/C=C/O[C@@]2(C)Oc3c(C)c(O)c4c(c3C2=O)C2=NC3(CCN(CC(C)C)CC3)NC2=C(NC(=O)/C(C)=C/C=C/[C@H](C)[C@H](O)[C@@H](C)[C@@H](O)[C@@H](C)[C@H](OC(=O)Nc2ccccc2)[C@@H]1C)C4=O
0.8

* * *

- Protocol: Mouse pharmacokinetics studies
- Type: in vivo, CD-1 mice
- Test parameters: female, CD-1, mouse, in vivo
Outcome measure: Vd (L/kg)
Number in L/kg, nothing else.

{"Compound": "CO[C@H]1/C=C/O[C@@]2(C)Oc3c(C)c(O)c4c(c3C2=O)C2=NC3(CCN(CC(C)C)CC3)NC2=C(NC(=O)/C(C)=C/C=C/[C@H](C)[C@H](O)[C@@H](C)[C@@H](O)[C@@H](C)[C@H](OC(=O)c2cccnc2)[C@@H]1C)C4=O [UMN22]", "Val": 1.6}

Quick one: Vd for CO[C@H]1/C=C/O[C@@]2(C)Oc3c(C)c(O)c4c(c3C2=O)C2=NC3(CCN(CC(C)C)CC3)NC2=C(NC(=O)/C(C)=C\C=C\[C@H](C)[C@H](O)[C@@H](C)[C@@H](O)[C@@H](C)[C@H](OC(C)=O)[C@@H]1C)C4=O [rifabutin, reference compound] ?
3.5

// next record CO[C@H]1/C=C/O[C@@]2(C)Oc3c(C)c(O)c4c(c3C2=O)C2=NC3(CCN(CC(C)C)CC3)NC2=C(NC(=O)/C(C)=C/C=C/[C@H](C)[C@H](O)[C@@H](C)[C@@H](O)[C@@H](C)[C@H](OC(=O)c2cncnc2)[C@@H]1C)C4=O [UMN46]
2.1
